target: B-Raf (Homo sapiens (Human), UniProt P15056); assay: B-Raf kinase activity (B-Raf/MEK1/MAPK2 cascade, MBP phosphorylation, [γ-32P]ATP); conditions: activated B-Raf, inactivated MEK1, inactivated MAPK2, 30° C., 30 minutes, read-out: B-Raf Enzyme Activity
Sequence (P15056 whole entry): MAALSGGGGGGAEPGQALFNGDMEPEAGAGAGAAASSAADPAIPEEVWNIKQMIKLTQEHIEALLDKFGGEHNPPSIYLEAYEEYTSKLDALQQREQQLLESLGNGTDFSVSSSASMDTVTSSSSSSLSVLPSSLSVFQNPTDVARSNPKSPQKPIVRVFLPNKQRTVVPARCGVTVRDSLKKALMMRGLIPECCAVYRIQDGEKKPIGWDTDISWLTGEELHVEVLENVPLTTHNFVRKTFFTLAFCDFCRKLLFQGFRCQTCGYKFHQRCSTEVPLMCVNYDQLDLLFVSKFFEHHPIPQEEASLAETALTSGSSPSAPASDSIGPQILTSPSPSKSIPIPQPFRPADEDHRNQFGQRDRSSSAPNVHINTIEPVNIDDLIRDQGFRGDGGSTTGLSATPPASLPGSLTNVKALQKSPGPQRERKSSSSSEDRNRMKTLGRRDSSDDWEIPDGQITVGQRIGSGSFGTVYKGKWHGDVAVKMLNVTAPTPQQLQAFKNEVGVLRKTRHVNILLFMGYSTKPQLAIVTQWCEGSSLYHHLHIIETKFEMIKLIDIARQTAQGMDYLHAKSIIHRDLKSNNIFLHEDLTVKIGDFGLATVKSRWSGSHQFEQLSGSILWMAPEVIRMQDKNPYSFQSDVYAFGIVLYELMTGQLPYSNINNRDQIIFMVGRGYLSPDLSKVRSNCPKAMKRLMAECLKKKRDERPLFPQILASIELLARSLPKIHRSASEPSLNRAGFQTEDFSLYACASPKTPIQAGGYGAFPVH
Doc: threshold 600 nM (exclusive). Items with IC50 beneath it return true; others return false.

Q: Hello, is IC50 of the following compound strictly smaller than 600 nM? Cc1cc(S(=O)(=O)Nc2ccc(F)c(Nc3ncccc3-c3ncnc4[nH]cnc34)c2F)c(C(F)(F)F)o1
Result: true

Q: Please indicate whether the reported IC50 of O=[N+]([O-])c1ccccc1CS(=O)(=O)Nc1ccc(F)c(Nc2ncccc2-c2ncnc3[nH]cnc23)c1F is strictly below 600 nM.
Result: false

Q: Lab log: compare recorded IC50 with 600 nM; is it strictly lower for Cc1nc(C)c(S(=O)(=O)Nc2ccc(F)c(Nc3ncccc3-c3ncnc4[nH]cnc34)c2F)s1 ?
Result: true

Q: Bench note: check whether Cc1cc(S(=O)(=O)Nc2ccc(F)c(Nc3ncccc3-c3ncnc4[nH]cnc34)c2F)c(C)o1 shows IC50 below 600 nM
Result: true

###

tested on: A375P cell line; assay: B-Raf cell activity inhibition (A375P growth inhibition, MTT assay); format: cell-based; settings: A375P human melanoma, V600E mutant of B-Raf, 72 hours
Assignment: determine reported IC50 for the given molecules.
Field format: number, assumed nM, no unit text.

Per the records, this molecule ( O=S(=O)(Nc1ccc(F)c(Nc2ncccc2-c2ncnc3[nH]cnc23)c1F)c1cc2ccccc2o1 ) has IC50 equal to 4300

Data point: Cc1cc(S(=O)(=O)Nc2ccc(F)c(Nc3ncccc3-c3ncnc4[nH]cnc34)c2F)c(C)o1 ; IC50 = 100

Record O=S(=O)(Nc1ccc(F)c(Nc2ncccc2-c2ncnc3[nH]cnc23)c1F)c1ccccc1 , field IC50: 160

// recorded IC50 for O=S(=O)(Nc1ccc(F)c(Nc2ncccc2-c2ncnc3[nH]cnc23)c1F)c1ccco1 : 11000

###

tested on: A375P cell line; assay: B-Raf cell activity inhibition (A375P growth inhibition, MTT assay); assay type: cell-based; settings: A375P human melanoma, V600E mutant of B-Raf, 72 hours
Give measured log10 of IC50 for each item. Keep answers brief.
Field: value | Transform: log10 | Quantity: IC50 | Unit: µM

Lookup result for Cn1ccc2c(S(=O)(=O)Nc3ccc(F)c(Nc4ncccc4-c4ncnc5[nH]cnc45)c3F)cccc21 [Example 41] ; measured log10 of IC50: 0.62

log10 of IC50 for Cc1cc(S(=O)(=O)Nc2ccc(F)c(Nc3ncccc3-c3ncnc4[nH]cnc34)c2F)c(C(F)(F)F)o1 [Example 26] is -0.48

// log10 of IC50 lookup, compound = O=S(=O)(Nc1ccc(F)c(Nc2ncccc2-c2ncnc3[nH]cnc23)c1F)c1ccc(C(F)(F)F)cc1 [Example 3] , result: 0.72

Form: compound = O=S(=O)(Nc1ccc(F)c(Nc2ncccc2-c2ncnc3[nH]cnc23)c1F)c1cccc(Cl)c1F [Example 29] ; log10 of IC50 = -0.14

log10 of IC50 in this record for O=S(=O)(Nc1ccc(F)c(Nc2ncccc2-c2ncnc3[nH]cnc23)c1F)c1cccc2ccoc12 [Example 37] : -0.09

Quick note, log10 of IC50 for O=S(=O)(Nc1ccc(F)c(Nc2ncccc2-c2ncnc3[nH]cnc23)c1F)c1ccsc1 [Example 17] landed at -1.40

The compound Cc1nc2ccc(S(=O)(=O)Nc3ccc(F)c(Nc4ncccc4-c4ncnc5[nH]cnc45)c3F)cc2s1 [Example 39] showed log10 of IC50 equal to 0.47

###

test system: A375P cell line; experiment: B-Raf cell activity inhibition (A375P growth inhibition, MTT assay); type: cell-based; conditions: A375P human melanoma, V600E mutant of B-Raf, 72 hours
Field: IC50. Provide a value for each of the compounds that follow.
Quick note: give the figure in nM, leave out the unit.

Input O=S(=O)(Nc1ccc(F)c(Nc2ncccc2-c2ncnc3[nH]cnc23)c1F)C1CC1 . Output IC50: 250

The compound listed as O=S(=O)(Nc1ccc(F)c(Nc2ncccc2-c2ncnc3[nH]cnc23)c1F)c1ccccc1Cl has a reported IC50 of 440

The reported value for Cc1ccccc1S(=O)(=O)Nc1ccc(F)c(Nc2ncccc2-c2ncnc3[nH]cnc23)c1F in terms of IC50 is 670

compound O=S(=O)(Nc1ccc(F)c(Nc2ncccc2-c2ncnc3[nH]cnc23)c1F)c1cccc(C(F)(F)F)c1 , IC50 observed: 230

Record O=S(=O)(Nc1ccc(F)c(Nc2ncccc2-c2ncnc3[nH]cnc23)c1F)c1cccc2c1OCCC2 . Reported IC50: 7190

// IC50 value for Cn1ccc2cccc(S(=O)(=O)Nc3ccc(F)c(Nc4ncccc4-c4ncnc5[nH]cnc45)c3F)c21 : 5870

Measured IC50 of Cc1ccc(S(=O)(=O)Nc2ccc(F)c(Nc3ncccc3-c3ncnc4[nH]cnc34)c2F)o1 : 60

For COc1ccc(S(=O)(=O)Nc2ccc(F)c(Nc3ncccc3-c3ncnc4[nH]cnc34)c2F)cc1OC the compound record lists IC50 as 10200

###

biological target: B-Raf (Homo sapiens (Human), UniProt P15056); assay: B-Raf kinase activity (B-Raf/MEK1/MAPK2 cascade, MBP phosphorylation, [γ-32P]ATP); conditions: activated B-Raf, inactivated MEK1, inactivated MAPK2, 30° C., 30 minutes, read-out: B-Raf Enzyme Activity
pIC50: −log10 of the molar value.
Please enter 1.0 where pIC50 is greater than or equal to 6, and 0.0 where it is lower.

Q: # check: pIC50 of Cn1cnc(S(=O)(=O)Nc2ccc(F)c(Nc3ncccc3-c3ncnc4[nH]cnc34)c2F)c1 is greater than or equal to 6
Result: 0.0

Q: Identify whether the reported pIC50 of the following molecule is 6 or greater: O=S(=O)(Nc1ccc(F)c(Nc2ncccc2-c2ncnc3[nH]cnc23)c1F)c1cccc(C(F)(F)F)c1
Result: 1.0

Q: Does the reported pIC50 for Cc1ccccc1S(=O)(=O)Nc1ccc(F)c(Nc2ncccc2-c2ncnc3[nH]cnc23)c1F fall at or above the 6 mark?
Result: 1.0

Q: Reported pIC50 at or above 6? Cc1nc2ccc(S(=O)(=O)Nc3ccc(F)c(Nc4ncccc4-c4ncnc5[nH]cnc45)c3F)cc2s1
Result: 1.0

Q: Check if pIC50 >= 6 (inclusive). Item: CC(C)S(=O)(=O)Nc1ccc(F)c(Nc2ncccc2-c2ncnc3[nH]cnc23)c1F
Result: 1.0

###

For each record, write down the corresponding pIC50.
system: A375P cell line; test: B-Raf cell activity inhibition (A375P growth inhibition, MTT assay); assay type: cell-based; conditions: A375P human melanoma, V600E mutant of B-Raf, 72 hours
Reminder that pIC50 is minus the log10 of a molar concentration.

Response field pIC50 (A375P cell line) for item Cc1cccc(Cl)c1S(=O)(=O)Nc1ccc(F)c(Nc2ncccc2-c2ncnc3[nH]cnc23)c1F [Example 27] : 6.12

Tested on A375P cell line: Cn1cc(S(=O)(=O)Nc2ccc(F)c(Nc3ncccc3-c3ncnc4[nH]cnc34)c2F)cn1 [Example 43] . Observed pIC50: 5.86

Tested system A375P cell line; pIC50 recorded for O=S(=O)(Nc1ccc(F)c(Nc2ncccc2-c2ncnc3[nH]cnc23)c1F)c1cccc(Cl)c1 [Example 33] was 6.11

Case Cn1cnc(S(=O)(=O)Nc2ccc(F)c(Nc3ncccc3-c3ncnc4[nH]cnc34)c2F)c1 [Example 22] , A375P cell line, pIC50 recorded as 6.00

Data credit: patent US9216981B2
